tested on: Mycobacterium tuberculosis; assay: Antimycobacterial activity against Mycobacterium tuberculosis H37Rv by agar dilution method; type: functional

| Compound | MIC [µM] |
| --- | --- |
| CC1(C)CC(=O)C2=C(C1)N(NC(=O)c1ccncc1)C1=C(C(=O)CC(C)(C)C1)C2c1ccccc1OCc1ccccc1 | 0.17 |
| O=C(NN1C(=O)CCSC1Cc1ccc([N+](=O)[O-])o1)c1ccncc1 (stereo not drawn) | 4.48 |
| CN(C)c1ccc(C2SCCC(=O)N2NC(=O)c2ccncc2)cc1 (stereo not drawn) | 8.78 |
| O=C(NN1C(=O)CCSC1c1ccccc1C(F)(F)F)c1ccncc1 (stereo not drawn) | 0.52 |
| O=C(NN1C(=O)CCSC1c1ccccc1)c1ccncc1 (stereo not drawn) | 9.9 |
| C/C(=N\NC(=O)c1ccncc1)c1ccc(NC(=S)Nc2ccc(F)cc2)cc1 | 0.45 |
| O=C(NN1C(=O)CCSC1c1cccc([N+](=O)[O-])c1)c1ccncc1 (stereo not drawn) | 0.56 |
